Just for reference, PubChem BioAssay is where these values come from.

normalised cell number overview
Test details: EMT-state selective cytotoxicity in co-culture – imaging, PC-3E GFP, TEM4-18 mCherry, primary screen (AID 1345086);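 further: cells exposed to compound for 72 h before imaging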
Experimental conditions: PC-3E GFP / TEM4-18 mCherry co-culture, imaging cell counts; measured here: mesenchymal TEM4-18 mCherry cell survival; at 1 µM
Answer with a number only.

Query: Which measured normalised cell number value corresponds to CCOc1ccc2nc3cc(N)ccc3c(N)c2c1 ?
Result: 0.65

Query: Reported normalised cell number for Oc1c(Cl)cc(Cl)cc1Sc1cc(Cl)cc(Cl)c1O : what is it?
Result: 1.14

Query: Value lookup for normalised cell number; key = CN(C)CCOC(=O)C(c1ccccc1)C1(O)CCCC1 (centres undefined)
Result: 1.52

* * *

Test details: viability loss in pontine glioma line – cell-based, JHH-DIPG-1, MIPE4.0, CellTiter-Glo, qHTS, dose response (AID 1347062);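 on AC50: cells exposed to compound for two days before readout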
Experimental conditions: JHH-DIPG-1 viability, CellTiter-Glo ATP luminescence
Records with an inconclusive call do not appear. Calls of active or inactive are those of the source. Cut-off not given; nearly all actives show AC50 up to about 27 µM.
Respond with a class label; see active, inactive

Query: Kindly provide the recorded test outcome for the following molecule: CN(Cc1cc(Br)cc(Br)c1N)C1CCCCC1
Result: inactive

Query: Please let me know the test result on file for Cc1c(O)cccc1C(=O)N[C@@H](CSc1ccccc1)[C@H](O)CN1C[C@H]2CCCC[C@H]2C[C@H]1C(=O)NC(C)(C)C .
Result: active

Query: Record lookup: outcome of this test for CS(=O)(=O)Nc1ccc([N+](=O)[O-])cc1Oc1ccccc1 ?
Result: inactive

* * *

Test system: R275C/beta4
Test details: BK channel mutant inhibitors and activators – cell-based, U2OS BacMam, thallium flux, beta subunits, selectivity assay, profiling panel (AID 1259406);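 further: initial slope of Thallos dye fluorescence rise after thallium is added; log ratio against the mean of 0.3% DMSO vehicle wells on the same plate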
Experimental conditions: U2OS BacMam BK variants, at 30 µM
Activity calls are given as the source filed them.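 How the source made its calls: active means thallium flux through the channel raised or lowered by more than 3 SD from vehicle-only wells, actives on both sides; inactive means the rest.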
Log the outcome using a class from true = active, false = inactive

Record excerpt, results attached:
| Compound | Cat |
| --- | --- |
| COC1=C(OC)C(=O)C(CCCCCCCCCCO)=C(C)C1=O | true |
| CC(C)(C(=O)c1cccnc1)c1cccnc1 | false |
| C[C@H]1COc2c(C3(N)CC3)c(F)cc3c(=O)c(C(=O)O)cn1c23 | false |
| CC(=O)Oc1ccccc1C(=O)Nc1ncc([N+](=O)[O-])s1 | false |
| Cc1ccsc1C(=CCCN1CCC[C@@H](C(=O)O)C1)c1sccc1C | false |

Query: State the result this test recorded for CCN1CC(CCN2CCOCC2)C(c2ccccc2)(c2ccccc2)C1=O (configuration not stated) .
Result: false

Query: // return assay outcome for NCC1CCC(C(=O)Oc2ccc(CCC(=O)O)cc2)CC1 (configuration not stated)
Result: false

Query: Hello, I am checking results. What call was entered for CC(C)(C)NC(=O)[C@@H]1CN(Cc2cccnc2)CCN1C[C@@H](O)C[C@@H](Cc1ccccc1)C(=O)N[C@H]1c2ccccc2C[C@H]1O ?
Result: false

Query: Name the outcome recorded for CC(Oc1c(Cl)cccc1Cl)C1=NCCN1 (configuration not stated) in the assay.
Result: false

Query: Dear colleague, could you share the recorded outcome for Cc1ccnc2c1NC(=O)c1cccnc1N2C1CC1 when you have a moment?
Result: false

Query: GET /call?item= CC(=O)O[C@H]1C[C@@H]2CC[C@@H]3[C@H](CC[C@@]4(C)[C@H]3C[C@H]([N+]3(C)CCCCC3)[C@@H]4OC(C)=O)[C@@]2(C)C[C@@H]1N1CCCCC1 returns the recorded outcome of this test.
Result: false

Query: Status in this test for CC(C)[C@H](N)C(=O)OCCOCn1cnc2c(=O)[nH]c(N)nc21 ?
Result: false

Query: How was Oc1ccc(C2CNCCc3c2cc(O)c(O)c3Cl)cc1 (configuration not stated) classified in this test?
Result: false

Query: Given CCOC(=O)C1=C(C)NC(C)=C(C(=O)OC)C1c1cccc(Cl)c1Cl (configuration not stated) , state the outcome it received in this test.
Result: false

Query: Can you look up the reported call for Cc1nc2n(c(=O)c1CCN1CCC(c3noc4cc(F)ccc34)CC1)CCCC2 for me?
Result: false

Query: # fetch the recorded call for O=C1[C@H]2CCCC[C@H]2C(=O)N1CCCCN1CCN(c2nsc3ccccc23)CC1 here
Result: false

Query: State the result this test recorded for Cn1nnc2c(C(N)=O)ncn2c1=O .
Result: false

Query: Identify the outcome logged in this assay for the compound shown: CN(C)CC[C@@H](c1ccc(Br)cc1)c1ccccn1
Result: false

Query: Any idea what this test logged for CC(C)c1ccc2oc3nc(N)c(C(=O)O)cc3c(=O)c2c1 ?
Result: false

Query: Record lookup: outcome of this test for CCCN[C@H]1CCc2nc(N)sc2C1 ?
Result: false

Query: Test call, this compound: Cc1cnc(NC(=O)C2=C(O)c3ccccc3S(=O)(=O)N2C)s1
Result: false

Query: Record lookup: outcome of this test for CC(C)(O)c1ccccc1CC[C@@H](SCC1(CC(=O)O)CC1)c1cccc(/C=C/c2ccc3ccc(Cl)cc3n2)c1 ?
Result: true

Query: Kindly provide the recorded test outcome for the following compound: Cc1c(O)cccc1C(=O)N[C@@H](CSc1ccccc1)[C@H](O)CN1C[C@H]2CCCC[C@H]2C[C@H]1C(=O)NC(C)(C)C
Result: false

Query: Assay outcome for O=C1Nc2ccc(Cl)cc2[C@@](C#CC2CC2)(C(F)(F)F)O1 : what was it?
Result: true

Query: Test call, this compound: CC(C)(C)C(O)/C=C/c1ccc2c(c1)OCO2 (configuration not stated)
Result: false

* * *

Test details: viability loss with induced miR-34 in A549 – imaging, A549 dox-inducible miR-34, nuclei and caspase counts, primary screen (AID 1347080)
Experimental conditions: A549 miR-34 inducible, Hoechst nuclei count, 48 h; measured here: total cells without miR-34 induction
Observation type: cell count
Answer as a number with no unit attached.

Would you please look over these solved cases?
| Compound | cell count |
| --- | --- |
| Cc1ccc(C(=O)C(C)CN2CCCCC2)cc1 (stereo not drawn) | 8730 |
| O=C1c2ccccc2C(=O)c2c1ccc(O)c2O | 8800 |

Moving on to the next compound.
Query: What value of measured cell count is listed for NCC1CCC(C(=O)Oc2ccc(CCC(=O)O)cc2)CC1 (stereo not drawn) ?
Result: 10200

* * *

Test details: NPC library primary testing for decreased DLD-1 cell viability via CellTiter-Glo (AID 1117346)
Experimental conditions: DLD-1 viability, CellTiter-Glo luminescence; at 20 µM (top of the series)
Active and inactive are the calls of the source.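 The calls were made as follows: active = compounds that lower survival of DLD-1 colon cancer cells in the luminescence readout, no cutoff given; inactive = the rest.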
Select the matching outcome among active, inactive

| Compound | Cat |
| --- | --- |
| C/C=C/c1ccc(OC)cc1 | inactive |
| O=C(COc1ccc(Cl)cc1)N1CCN(Cc2ccc3c(c2)OCO3)CC1 | active |
| COc1ccc(C(=O)CC(=O)c2ccc(C(C)(C)C)cc2)cc1 | inactive |
| CO[C@@]12[C@H](COC(N)=O)C3=C(C(=O)C(C)=C(N)C3=O)N1C[C@@H]1N[C@@H]12 | active |
| CC(C(=O)O)c1ccc(CC2CCCC2=O)cc1 (stereo unspecified) | inactive |

Query: Which outcome was assigned to CC[C@]12CCCN3CCc4c(n(c5ccccc45)C(=O)C1)[C@@H]32 in this test?
Result: active

Query: Which outcome did this test record for the compound Nc1nnc(-c2cccc(Cl)c2Cl)c(N)n1 ?
Result: inactive

* * *

Test details: NPC library primary testing for decreased DLD-1 cell viability via CellTiter-Glo (AID 1117346)
Experimental conditions: DLD-1 viability, CellTiter-Glo luminescence; at 20 µM (top of the series)
Observation type: viability decrease (inhibition) (%)
Note: unit % is implicit; provide only the numeric part.

Use these answered entries as a reference point.
| Molecule | Val |
| --- | --- |
| O=C1NCC2(CCN(CCc3ccccc3)CC2)O1 | -32.8 |
| CN1CCCCC1CCN1c2ccccc2Sc2ccc(S(C)=O)cc21 (centres undefined) | 9.3 |

Query: Entry under review: C/C=C(/C(=C/C)c1ccc(O)cc1)c1ccc(O)cc1 . Reported viability decrease (inhibition)?
Result: 102

Query: # viability decrease (inhibition) lookup, item CN1CCN(c2c(F)cc3c(=O)c(C(=O)O)cn4c3c2SCC4)CC1
Result: 0.6

Query: May I ask what viability decrease (inhibition) has been recorded for O=C1c2cccc(O)c2C(=O)c2c(O)cccc21 ?
Result: 9.7

Query: Given the molecule Cc1ccc(C(=O)c2ccc(CC(=O)O)n2C)cc1 , what is its reported viability decrease (inhibition)?
Result: 4.3

Query: // viability decrease (inhibition) lookup, key: COC(=O)CCc1ccc(OCC(O)CNC(C)C)cc1 (centres undefined)
Result: 16.8

Query: State the recorded viability decrease (inhibition) for this entry: OCCOCCN1CCN(C2=Nc3ccccc3Sc3ccccc32)CC1
Result: 7.8

Query: Could you share which viability decrease (inhibition) value was measured for Cc1cc(NC(=O)C2=C(O)c3ccccc3S(=O)(=O)N2C)no1 ?
Result: -7.2

Query: Look at this molecule and give its reported viability decrease (inhibition). C[C@]12C[C@H](O)[C@H]3[C@@H](CCC4=CC(=O)CC[C@@]43C)[C@@H]1CC[C@@H]2C(=O)CO
Result: 8.6

Query: # query: viability decrease (inhibition) of entry CN(C)CCc1c[nH]c2ccc(CS(=O)(=O)N3CCCC3)cc12
Result: -7.1

Query: Quick one: viability decrease (inhibition) of Cc1nc2n(c(=O)c1CCN1CCC(c3noc4cc(F)ccc34)CC1)CCCC2 ?
Result: 10.7

Query: Reported viability decrease (inhibition), molecule CCN1CC(CCN2CCOCC2)C(c2ccccc2)(c2ccccc2)C1=O (centres undefined) : ____
Result: 4.2

Query: Report viability decrease (inhibition) for Oc1c(I)cc(I)c2cccnc12 please.
Result: 96.2

Query: Look at this molecule and give its reported viability decrease (inhibition). Cc1nc2ccc(CN(C)c3ccc(C(=O)N[C@@H](CCC(=O)O)C(=O)O)s3)cc2c(=O)[nH]1
Result: 56.2

Query: Record request: viability decrease (inhibition) value, item Nc1ccc(S(=O)(=O)Nc2nccs2)cc1
Result: 12

Query: For CCc1c(C)[nH]c2c1C(=O)C(CN1CCOCC1)CC2 (centres undefined) , what is its reported viability decrease (inhibition)?
Result: -11

Query: Reported viability decrease (inhibition), molecule CC(Oc1c(Cl)cccc1Cl)C1=NCCN1 (centres undefined) : ____
Result: 61.6

Query: If you can, please state the reported viability decrease (inhibition) value of CNC[C@H](O)[C@@H](O)[C@H](O)[C@H](O)CO .
Result: 15.4
